target: SARS-CoV-2 NSP3 macrodomain (Mac1) (Severe acute respiratory syndrome coronavirus 2, UniProt P0DTD1); format: binding
METRIC: Occupancy difference (refined_occupancy - 2*(1-BDC))
Write the value as a bare number.

Worked cases, Occupancy difference (refined_occupancy - 2*(1-BDC)) given:
COMPOUND | ASSAY VALUE
OCC(Cc1nccs1)Nc1ncnc2[nH]ccc12 (centres unmarked) [AVI-3673] | 0
CC1CC(C(=O)O)CCN1C(=O)c1ccc2c(c1)OCC(=O)N2 (centres unmarked) [AVI-303] | 0
Cc1sc2ncnc(Sc3ccccc3C(=O)O)c2c1C [AVI-317] | 30
CCC(C)(CO)Nc1ncnc2[nH]ccc12 (centres unmarked) [AVI-3697] | 18

Query: May I ask what Occupancy difference (refined_occupancy - 2*(1-BDC)) has been recorded for OCC(Nc1ncnc2[nH]ccc12)C1CCc2ccccc21 (centres unmarked) [AVI-3693] ?
Result: 16

Query: May I ask what Occupancy difference (refined_occupancy - 2*(1-BDC)) has been recorded for OCC(Cc1cccs1)Nc1ncnc2[nH]ccc12 (centres unmarked) [AVI-3711] ?
Result: 0

Query: May I ask what Occupancy difference (refined_occupancy - 2*(1-BDC)) has been recorded for OCC(CC1CCCC1)Nc1ncnc2[nH]ccc12 (centres unmarked) [AVI-3691] ?
Result: -16

Query: May I ask what Occupancy difference (refined_occupancy - 2*(1-BDC)) has been recorded for OCC(CC1OCCO1)Nc1ncnc2[nH]ccc12 (centres unmarked) [AVI-3658] ?
Result: 0

====

molecular target: SARS-CoV-2 NSP3 macrodomain (Mac1) (Severe acute respiratory syndrome coronavirus 2, UniProt P0DTD1); assay type: binding; conditions: PanDDA background density correction, 1-BDC
Quick list: 1-BDC per entry.

Worked cases, 1-BDC given:
COMPOUND | 1-BDC
OC1(CNc2ncnc3[nH]ccc23)CCOCC1 | 0.15
OC1(CNc2ncnc3[nH]ccc23)COC2CC1C2 (centres unmarked) | 0.19
OC1CCN(c2ncnc3[nH]ccc23)C1 (centres unmarked) | 0.15
CC(C)n1nnnc1SCc1c(C(=O)O)sc2cccc(F)c12 | 0.34
OC1(CNc2ncnc3[nH]ccc23)CCCSC1 (centres unmarked) | 0.21

The record that follows has no 1-BDC shown yet.
Query: May I ask what 1-BDC has been recorded for CC(C)(O)C1N(c2ncnc3[nH]ccc23)CCC1(C)C (centres unmarked) ?
Result: 0.16

====

molecular target: SARS-CoV-2 NSP3 macrodomain (Mac1) (Severe acute respiratory syndrome coronavirus 2); format: binding; details: crystal soak 10 mM
METRIC: PanDDA run, overall: Modeling comment

MOLECULE | TEST TARGET | ASSAY VALUE
O=C(O)C(F)(F)F.OCC(Cc1cccc(F)c1)Nc1ncnc2[nH]ccc12 (stereo not shown) | SARS-CoV-2 NSP3 macrodomain (Mac1) (Severe acute respiratory syndrome coronavirus 2) | TFA only
CC(C)(C)C(O)CC(CO)Nc1ncnc2[nH]ccc12.O=C(O)C(F)(F)F (stereo not shown) | SARS-CoV-2 NSP3 macrodomain (Mac1) (Severe acute respiratory syndrome coronavirus 2) | TFA only
O=C(O)C(F)(F)F.OC1c2ccccc2CC1Nc1ncnc2[nH]ccc12 (stereo not shown) | SARS-CoV-2 NSP3 macrodomain (Mac1) (Severe acute respiratory syndrome coronavirus 2) | TFA only

====

molecular target: SARS-CoV-2 NSP3 macrodomain (Mac1) (Severe acute respiratory syndrome coronavirus 2); format: binding; details: soak concentration 10 mM, P43 crystals
METRIC: PanDDA run, overall: Modeling comment

COMPOUND | METRIC | ASSAY VALUE
CC(CNC(=O)c1ccc2c(c1)CCC(=O)N2)C(=O)O (centres unmarked) [AVI-328] | PanDDA run, overall: Modeling comment | Duplicate, not modeled
CNc1ccc(NS(=O)(=O)c2cc3cccc(C)c3s2)cn1 [AVI-345] | PanDDA run, overall: Modeling comment | Duplicate, not modeled
Cc1sc2ncnc(Sc3ccccc3C(=O)O)c2c1C [AVI-317] | PanDDA run, overall: Modeling comment | Duplicate, not modeled

====

biological target: SARS-CoV-2 NSP3 macrodomain (Mac1) (Severe acute respiratory syndrome coronavirus 2); assay type: binding; settings: crystal soak, P43 crystals; soak concentration 10 mM
METRIC: PanDDA run, overall: Modeled

COMPOUND | TEST TARGET | METRIC | ASSAY VALUE
O=C(O)C1CCCN1S(=O)(=O)c1cccc2nsnc12 (stereo not shown) [AVI-2] | SARS-CoV-2 NSP3 macrodomain (Mac1) (Severe acute respiratory syndrome coronavirus 2) | PanDDA run, overall: Modeled | TRUE
Nc1nnc(SCCn2c(=O)oc3ccccc32)s1 [AVI-296] | SARS-CoV-2 NSP3 macrodomain (Mac1) (Severe acute respiratory syndrome coronavirus 2) | PanDDA run, overall: Modeled | TRUE
CC1CC(C(=O)O)CCN1C(=O)c1ccc2c(c1)OCC(=O)N2 (stereo not shown) [AVI-303] | SARS-CoV-2 NSP3 macrodomain (Mac1) (Severe acute respiratory syndrome coronavirus 2) | PanDDA run, overall: Modeled | TRUE
c1ccc(-n2nnnc2CSc2nnc(NC3CC3)s2)cc1 [AVI-286] | SARS-CoV-2 NSP3 macrodomain (Mac1) (Severe acute respiratory syndrome coronavirus 2) | PanDDA run, overall: Modeled | TRUE

====

Quick list: 2*(1-BDC) (%) per entry.
target: SARS-CoV-2 NSP3 macrodomain (Mac1) (Severe acute respiratory syndrome coronavirus 2); format: binding; conditions: occupancy estimate from PanDDA
Expressed in %, but write only the number.

COMPOUND | 2*(1-BDC) (%)
OCC(CC1CCCCC1)Nc1ncnc2[nH]ccc12 (stereo not shown) [AVI-3690] | 24

Query: May I ask what 2*(1-BDC) (%) has been recorded for OCC1CC2(CCOCC2)CN1c1ncnc2[nH]ccc12 (stereo not shown) [AVI-3707] ?
Result: 42

Query: May I ask what 2*(1-BDC) (%) has been recorded for O=S1(=O)CCCC(O)(CNc2ncnc3[nH]ccc23)C1 (stereo not shown) [AVI-4317] ?
Result: 86

Query: May I ask what 2*(1-BDC) (%) has been recorded for CC(C)(C)C1CCCN1c1ncnc2[nH]ccc12 (stereo not shown) [AVI-6000] ?
Result: 14

Query: May I ask what 2*(1-BDC) (%) has been recorded for CC1CCC(O)(CNc2ncnc3[nH]ccc23)CC1 (stereo not shown) [AVI-4312] ?
Result: 44

Query: May I ask what 2*(1-BDC) (%) has been recorded for OCC(Cc1ccccn1)Nc1ncnc2[nH]ccc12 (stereo not shown) [AVI-3696] ?
Result: 26

Query: May I ask what 2*(1-BDC) (%) has been recorded for OCC(Cc1nccs1)Nc1ncnc2[nH]ccc12 (stereo not shown) [AVI-3673] ?
Result: 38

Query: May I ask what 2*(1-BDC) (%) has been recorded for CC(C)C1CCCN1c1ncnc2[nH]ccc12 (stereo not shown) [AVI-5216] ?
Result: 26

Query: May I ask what 2*(1-BDC) (%) has been recorded for OCC(Cc1c[nH]c2ccccc12)Nc1ncnc2[nH]ccc12 (stereo not shown) [AVI-3650] ?
Result: 30

====

target: SARS-CoV-2 NSP3 macrodomain (Mac1) (Severe acute respiratory syndrome coronavirus 2); format: binding; conditions: crystal soak 10 mM; DMSO background map
METRIC: PanDDA run, DMSO background map: Hit

COMPOUND | METRIC | ASSAY VALUE
CCC(Nc1ncnc2[nH]ccc12)C(C)O (stereo not drawn) | PanDDA run, DMSO background map: Hit | TRUE
OCC(Nc1ncnc2[nH]ccc12)C1CCOC1 (stereo not drawn) | PanDDA run, DMSO background map: Hit | TRUE
Cc1nn(C)cc1C1CC[C@H](CO)N1c1ncnc2[nH]ccc12 (stereo partly drawn) | PanDDA run, DMSO background map: Hit | TRUE
OC1CCN(c2ncnc3[nH]ccc23)C1 (stereo not drawn) | PanDDA run, DMSO background map: Hit | TRUE
CN(C)CC(CO)Nc1ncnc2[nH]ccc12 (stereo not drawn) | PanDDA run, DMSO background map: Hit | TRUE

The record that follows has no PanDDA run, DMSO background map: Hit shown yet.
Query: May I ask what PanDDA run, DMSO background map: Hit has been recorded for OCC1C2CCC(C2)N1c1ncnc2[nH]ccc12 (stereo not drawn) ?
Result: TRUE

====

target: SARS-CoV-2 NSP3 macrodomain (Mac1) (Severe acute respiratory syndrome coronavirus 2); format: binding; details: ligand conformations modeled in the crystal structure
METRIC: Total number of conformations
Write the value as a bare number.

Worked cases, Total number of conformations given:
COMPOUND | Total number of conformations
CC1CCN(c2ncnc3[nH]ccc23)C1CO (centres unmarked) | 1
CC(C)(C)[C@@H]1CCN(c2ncnc3[nH]ccc23)[C@H](CO)C1 | 1
CC(C)(C)C1CCC(CO)N(c2ncnc3[nH]ccc23)C1 (centres unmarked) | 1
Nc1nnc(SCCn2c(=O)oc3ccccc32)s1 | 1
OCC(Cc1c[nH]c2ccccc12)Nc1ncnc2[nH]ccc12 (centres unmarked) | 2

Query: May I ask what Total number of conformations has been recorded for C#CCC(CO)Nc1ncnc2[nH]ccc12 (centres unmarked) ?
Result: 1

Query: May I ask what Total number of conformations has been recorded for O[C@H]1CC[C@@H]2CCN(c3ncnc4[nH]ccc34)[C@@H]21 ?
Result: 1

Query: May I ask what Total number of conformations has been recorded for OCC(Nc1ncnc2[nH]ccc12)C1CCc2ccccc21 (centres unmarked) ?
Result: 2

Query: May I ask what Total number of conformations has been recorded for OCC(Cc1ccoc1)Nc1ncnc2[nH]ccc12 (centres unmarked) ?
Result: 1

Query: May I ask what Total number of conformations has been recorded for OC1CCCN(c2ncnc3[nH]ccc23)C1 (centres unmarked) ?
Result: 1

Query: May I ask what Total number of conformations has been recorded for OCC(Nc1ncnc2[nH]ccc12)c1ccco1 (centres unmarked) ?
Result: 1

Query: May I ask what Total number of conformations has been recorded for CCC(C)(CO)Nc1ncnc2[nH]ccc12 (centres unmarked) ?
Result: 1

Query: May I ask what Total number of conformations has been recorded for OCC(Nc1ncnc2[nH]ccc12)c1ccccc1 (centres unmarked) ?
Result: 1

Data origin: paper PMC12118597
